All values here come from ChEMBL document CHEMBL4196087.

As shown below, each of these compounds has a reported inhibition of growth at 10 µM value.
Tested on: MOLT-4
Assay: Growth inhibition of human MOLT4 cells at 10^-5 M incubated for 48 hrs by sulforhodamine B assay relative to control
Assay type: functional
Settings: MOLT-4, 48 h, read-out: GI

Below: 2 compounds and their reported inhibition of growth at 10 µM.
- SMILES INPUT: "O=C(O)c1cn(C2CC2)c2cc(N3CCN(Cc4nnc(S)o4)CC3)c(F)cc2c1=O"
  TEST VALUE: "23%"
- SMILES INPUT: "CSc1nnc(CN2CCN(c3cc4c(cc3F)c(=O)c(C(=O)O)cn4C3CC3)CC2)o1"
  TEST VALUE: "< 20%"

Next compound, please.
Note inhibition of growth at 10 µM for the compound shown: O=C(CN1CCN(c2cc3c(cc2F)c(=O)c(C(=O)O)cn3C2CC2)CC1)N/N=C/c1ccc(Cl)cc1
< 20%

###

System: MOLT-4
Test: Growth inhibition of human MOLT4 cells at 10^-5 M incubated for 48 hrs by sulforhodamine B assay relative to control
Assay type: functional
Conditions: MOLT-4, 48 h, read-out: GI
MEASURED ENDPOINT: inhibition of growth at 10 µM

Some compounds with recorded inhibition of growth at 10 µM:
- SMILES INPUT: "O=C(CN1CCN(c2cc3c(cc2F)c(=O)c(C(=O)O)cn3C2CC2)CC1)N/N=C/c1cccs1"
  inhibition of growth at 10 µM: "< 20%"
- SMILES INPUT: "O=C(CN1CCN(c2cc3c(cc2F)c(=O)c(C(=O)O)cn3C2CC2)CC1)N/N=C/c1c[nH]c2ccccc12"
  inhibition of growth at 10 µM: "24.6%"
- SMILES INPUT: "O=C(CSc1nnc(CN2CCN(c3cc4c(cc3F)c(=O)c(C(=O)O)cn4C3CC3)CC2)o1)c1ccc(Cl)cc1"
  inhibition of growth at 10 µM: "< 20%"
- SMILES INPUT: "O=C(CSc1nnc(CN2CCN(c3cc4c(cc3F)c(=O)c(C(=O)O)cn4C3CC3)CC2)o1)c1ccccc1"
  inhibition of growth at 10 µM: "< 20%"
- SMILES INPUT: "COc1ccc(/C=N/NC(=O)CN2CCN(c3cc4c(cc3F)c(=O)c(C(=O)O)cn4C3CC3)CC2)cc1"
  inhibition of growth at 10 µM: "< 20%"

Param request: inhibition of growth at 10 µM | system MOLT-4 | item O=C(CN1CCN(c2cc3c(cc2F)c(=O)c(C(=O)O)cn3C2CC2)CC1)N/N=C/c1ccccc1C(F)(F)F
27.3%

Provide the reported inhibition of growth at 10 µM (system: MOLT-4) for NNC(=O)CN1CCN(c2cc3c(cc2F)c(=O)c(C(=O)O)cn3C2CC2)CC1
< 20%

Please respond with reported inhibition of growth at 10 µM (system MOLT-4) for O=C(CN1CCN(c2cc3c(cc2F)c(=O)c(C(=O)O)cn3C2CC2)CC1)N/N=C/c1cc2ccccc2[nH]1 .
< 20%

###

Tested on: LOX IMVI
Test: Growth inhibition of human LOXIMVI cells at 10^-5 M incubated for 48 hrs by sulforhodamine B assay relative to control
Assay type: functional
Settings: read-out: GI
Below, each entry is listed alongside its reported inhibition of growth at 10 µM.

Below are worked cases with known answers.
- SMILES INPUT: "O=C(CN1CCN(c2cc3c(cc2F)c(=O)c(C(=O)O)cn3C2CC2)CC1)N/N=C/c1ccccc1C(F)(F)F"
  STUDY TARGET: "LOX IMVI"
  inhibition of growth at 10 µM: "32.3%"
- SMILES INPUT: "O=C(CSc1nnc(CN2CCN(c3cc4c(cc3F)c(=O)c(C(=O)O)cn4C3CC3)CC2)o1)c1ccccc1"
  STUDY TARGET: "LOX IMVI"
  inhibition of growth at 10 µM: "25.3%"
- SMILES INPUT: "O=C(CN1CCN(c2cc3c(cc2F)c(=O)c(C(=O)O)cn3C2CC2)CC1)N/N=C/c1cccs1"
  STUDY TARGET: "LOX IMVI"
  inhibition of growth at 10 µM: "27.7%"

Find the measured inhibition of growth at 10 µM of CSc1nnc(CN2CCN(c3cc4c(cc3F)c(=O)c(C(=O)O)cn4C3CC3)CC2)o1 and report it.
< 20%
